Tgt: CDK12/Cyclin K (Homo sapiens, UniProt Q9NYV4)
Sequence (Q9NYV4 1-1481 isoform Q9NYV4-2): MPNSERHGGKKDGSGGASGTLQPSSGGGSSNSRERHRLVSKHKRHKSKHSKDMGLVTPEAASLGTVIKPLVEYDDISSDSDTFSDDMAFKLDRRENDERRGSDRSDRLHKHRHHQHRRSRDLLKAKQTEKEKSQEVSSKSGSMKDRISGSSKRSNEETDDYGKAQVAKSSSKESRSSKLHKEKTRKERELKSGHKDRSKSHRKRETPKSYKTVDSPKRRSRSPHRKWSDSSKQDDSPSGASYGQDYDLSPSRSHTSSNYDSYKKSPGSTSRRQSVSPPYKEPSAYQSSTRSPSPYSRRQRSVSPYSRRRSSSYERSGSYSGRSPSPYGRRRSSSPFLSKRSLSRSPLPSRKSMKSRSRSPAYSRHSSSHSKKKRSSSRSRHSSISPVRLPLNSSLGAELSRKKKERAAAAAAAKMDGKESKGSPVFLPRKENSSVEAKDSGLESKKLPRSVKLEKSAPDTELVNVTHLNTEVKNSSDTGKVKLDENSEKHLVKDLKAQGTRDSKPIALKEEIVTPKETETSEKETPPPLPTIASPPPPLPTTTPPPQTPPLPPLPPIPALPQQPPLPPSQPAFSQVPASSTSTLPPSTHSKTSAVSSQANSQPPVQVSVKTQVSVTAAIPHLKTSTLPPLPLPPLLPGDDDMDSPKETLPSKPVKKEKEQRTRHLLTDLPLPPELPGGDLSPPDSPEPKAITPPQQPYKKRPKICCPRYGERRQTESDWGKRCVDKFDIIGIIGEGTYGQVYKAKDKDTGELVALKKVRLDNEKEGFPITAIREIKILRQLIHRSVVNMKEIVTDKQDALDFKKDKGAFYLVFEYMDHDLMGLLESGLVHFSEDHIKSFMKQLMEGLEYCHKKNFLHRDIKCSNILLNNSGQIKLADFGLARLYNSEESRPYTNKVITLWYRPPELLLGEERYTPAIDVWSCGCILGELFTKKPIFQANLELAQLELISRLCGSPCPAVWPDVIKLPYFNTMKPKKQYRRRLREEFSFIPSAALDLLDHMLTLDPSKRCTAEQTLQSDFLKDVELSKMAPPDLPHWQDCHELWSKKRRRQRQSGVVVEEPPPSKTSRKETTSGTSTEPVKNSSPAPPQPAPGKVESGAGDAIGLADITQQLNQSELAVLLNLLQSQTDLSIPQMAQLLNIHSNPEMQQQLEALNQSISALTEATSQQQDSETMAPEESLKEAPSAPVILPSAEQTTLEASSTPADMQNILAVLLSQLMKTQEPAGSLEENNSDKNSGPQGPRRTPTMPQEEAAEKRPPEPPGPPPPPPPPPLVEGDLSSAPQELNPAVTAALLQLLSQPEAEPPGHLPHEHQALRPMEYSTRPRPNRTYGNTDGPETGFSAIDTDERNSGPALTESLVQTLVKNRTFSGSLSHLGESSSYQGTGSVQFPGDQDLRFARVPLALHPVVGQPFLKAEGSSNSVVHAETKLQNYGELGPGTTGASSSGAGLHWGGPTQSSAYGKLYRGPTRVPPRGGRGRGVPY
Sequence (O75909 whole entry partner): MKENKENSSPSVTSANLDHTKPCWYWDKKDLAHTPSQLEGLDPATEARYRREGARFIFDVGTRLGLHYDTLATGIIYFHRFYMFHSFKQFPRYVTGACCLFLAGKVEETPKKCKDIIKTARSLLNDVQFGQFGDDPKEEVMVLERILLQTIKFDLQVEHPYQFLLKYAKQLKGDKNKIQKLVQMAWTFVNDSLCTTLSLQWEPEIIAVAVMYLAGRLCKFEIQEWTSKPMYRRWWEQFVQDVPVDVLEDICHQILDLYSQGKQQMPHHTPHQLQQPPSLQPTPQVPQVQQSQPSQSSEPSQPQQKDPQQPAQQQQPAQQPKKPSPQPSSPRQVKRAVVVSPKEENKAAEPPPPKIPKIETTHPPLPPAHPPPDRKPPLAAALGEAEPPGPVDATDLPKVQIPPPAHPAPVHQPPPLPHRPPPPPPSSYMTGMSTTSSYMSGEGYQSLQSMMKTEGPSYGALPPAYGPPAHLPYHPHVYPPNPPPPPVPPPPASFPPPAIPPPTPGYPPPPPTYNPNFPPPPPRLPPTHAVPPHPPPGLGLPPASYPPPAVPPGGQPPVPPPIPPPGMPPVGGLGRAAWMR
Protocol: NanoBRET live-cell target engagement, CDK12-NanoLuc/Cyclin K in HEK-293
Type: binding
Condition Description: CDK12/K; experiment 1
Please respond with label 1 when measured Inhibition at 10µM (%) is strictly beneath 30%, and with label 0 in all other cases.

Worked set:
Molecule	Category
CNc1nc(C)c(-c2nc(Nc3cccc(S(N)(=O)=O)c3)ncc2F)s1	label 0
CN1CCC(c2c(O)cc(O)c3c(=O)cc(-c4ccccc4Cl)oc23)C1CO (stereo not drawn)	label 1
CC(C)c1c2cc(-c3ccnc(N[C@H]4CC[C@H](NC5CCOCC5)CC4)n3)ccc2nn1C	label 0
CCn1cnc2c(Nc3cccc(Cl)c3)nc(N[C@@H]3CCCC[C@@H]3N)nc21 [CGP74514A]	label 0
CC(C)c1cnn2c(NCc3ccccc3-n3cccn3)nc(OC3CCCNC3)nc12 (stereo not drawn)	label 1

Read the next record carefully.
Given the entry CS(=O)(=O)N1CCC(NC(=O)c2[nH]ncc2NC(=O)c2c(Cl)cccc2Cl)CC1 , would its reported Inhibition at 10µM (%) be below 30%?
label 1

----------
Field: inhibition at 10 µM. Provide a value for each of the compounds that follow.
Tgt: CDK18/Cyclin Y (Homo sapiens, UniProt Q07002)
Sequence (Q07002 whole entry): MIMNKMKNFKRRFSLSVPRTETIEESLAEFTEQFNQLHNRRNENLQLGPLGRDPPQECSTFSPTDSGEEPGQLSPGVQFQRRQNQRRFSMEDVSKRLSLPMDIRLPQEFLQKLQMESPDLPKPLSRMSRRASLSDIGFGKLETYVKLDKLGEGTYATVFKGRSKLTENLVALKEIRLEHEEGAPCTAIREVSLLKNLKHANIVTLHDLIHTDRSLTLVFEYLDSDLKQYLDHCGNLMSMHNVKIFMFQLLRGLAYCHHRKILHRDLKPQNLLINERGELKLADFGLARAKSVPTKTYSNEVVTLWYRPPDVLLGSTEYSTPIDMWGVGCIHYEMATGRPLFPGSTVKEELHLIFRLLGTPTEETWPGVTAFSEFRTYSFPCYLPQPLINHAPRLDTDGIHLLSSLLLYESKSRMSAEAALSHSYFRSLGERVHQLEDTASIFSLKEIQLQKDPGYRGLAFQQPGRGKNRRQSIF
Sequence (Q8ND76 whole entry partner): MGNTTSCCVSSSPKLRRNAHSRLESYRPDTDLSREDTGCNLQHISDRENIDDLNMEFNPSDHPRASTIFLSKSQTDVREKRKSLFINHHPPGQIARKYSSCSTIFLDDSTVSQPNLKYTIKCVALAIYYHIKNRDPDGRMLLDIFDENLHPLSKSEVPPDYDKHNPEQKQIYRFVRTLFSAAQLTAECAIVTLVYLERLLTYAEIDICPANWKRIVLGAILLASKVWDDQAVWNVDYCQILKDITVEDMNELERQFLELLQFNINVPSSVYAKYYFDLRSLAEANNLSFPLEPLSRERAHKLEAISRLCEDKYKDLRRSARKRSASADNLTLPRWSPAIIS
Protocol: NanoBRET live-cell target engagement, CDK18-NanoLuc/Cyclin Y in HEK-293
Format: binding
Condition Description: 10µM; average of experiments; read-out: CDK18/Y Inhibition at 10µM (%)
Answers are plain numbers, in %.

Below, 4 compounds whose answers are already recorded.
Smiles	Reported Property	Unit Tag	Measurement
CC(C)[C@H](CO)Nc1nc(Nc2ccc(C(=O)O)c(Cl)c2)c2ncn(C(C)C)c2n1	inhibition at 10 µM	%	5.4
CN1CCN(c2ccc(Nc3ncc4cc5n(c4n3)C3(CCCCC3)CNC5=O)nc2)CC1	inhibition at 10 µM	%	13.4
CC(C)CC(=O)Nc1[nH]nc2c1CN(C(=O)C1CCN(C)CC1)C2(C)C	inhibition at 10 µM	%	91.7
CN1C/C=C/CCOc2cccc(c2)-c2ccnc(n2)Nc2cccc(c2)C1	inhibition at 10 µM	%	101

Now for the compound whose inhibition at 10 µM we want.
Given the entry CN(C)C/C=C/C(=O)Nc1ccc(C(=O)N2CCC[C@@H](Nc3ncc(Cl)c(-c4c[nH]c5ccccc45)n3)C2)cc1 , report its measured inhibition at 10 µM.
64.6

----------
Tgt: CDK14/Cyclin Y (Homo sapiens, UniProt O94921)
Sequence (O94921 whole entry, one chain of several): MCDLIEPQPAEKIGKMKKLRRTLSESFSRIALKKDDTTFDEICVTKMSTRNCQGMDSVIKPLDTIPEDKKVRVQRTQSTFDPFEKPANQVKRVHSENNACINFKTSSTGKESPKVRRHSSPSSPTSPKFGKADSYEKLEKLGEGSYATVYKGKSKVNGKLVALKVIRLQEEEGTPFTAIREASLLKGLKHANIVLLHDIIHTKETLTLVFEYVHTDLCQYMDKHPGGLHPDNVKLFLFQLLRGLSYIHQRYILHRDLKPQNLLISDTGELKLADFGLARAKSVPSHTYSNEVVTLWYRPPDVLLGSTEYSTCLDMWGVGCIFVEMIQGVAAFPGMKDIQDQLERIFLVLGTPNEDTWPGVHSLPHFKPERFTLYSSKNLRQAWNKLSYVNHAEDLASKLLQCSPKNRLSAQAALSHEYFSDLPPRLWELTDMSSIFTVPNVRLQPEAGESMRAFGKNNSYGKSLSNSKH
Protocol: NanoBRET live-cell target engagement, CDK14-NanoLuc/Cyclin Y in HEK-293
Assay type: binding
Condition Description: 10µM; independent experiment 1; read-out: CDK14/Y Inhibition at 10µM (%)
Assign class 1 to entries whose inhibition at 10 µM meets or exceeds 20%; assign class 0 to the rest.

Compound	Category
CC(C)CC(=O)Nc1[nH]nc2c1CN(C(=O)C1CCN(C)CC1)C2(C)C [PHA-793887]	class 1
CC(C)[C@H](CO)Nc1nc(Nc2ccc(C(=O)O)c(Cl)c2)c2ncn(C(C)C)c2n1 [Purvalanol B]	class 0
CN1C/C=C/CCOc2cccc(c2)-c2ccnc(n2)Nc2cccc(c2)C1 [SB1317]	class 1
CN(C)C/C=C/C(=O)Nc1ccc(C(=O)N2CCC[C@@H](Nc3ncc(Cl)c(-c4c[nH]c5ccccc45)n3)C2)cc1 [THZ531]	class 1
CC(=O)c1c(C)c2cnc(Nc3ccc(N4CCNCC4)cn3)nc2n(C2CCCC2)c1=O [Palbociclib]	class 1

Is inhibition at 10 µM at least 20%? Consider CN1CCN(c2ccc(Nc3ncc4cc5n(c4n3)C3(CCCCC3)CNC5=O)nc2)CC1 [Trilaciclib]
class 0

----------
Tgt: CDK12/Cyclin K (Homo sapiens, UniProt Q9NYV4)
Protocol: NanoBRET live-cell target engagement, CDK12-NanoLuc/Cyclin K in HEK-293
Type: binding
Condition Description: live HEK-293, 2 h; mean ± S.E.M. (n=3) or mean (n=2); read-out: IC50 for CDK/cyclin complexes, CDK12/K
Reported Property: IC50
The reply should consist of the numeric value with the unit placed after it.

Write down the reported IC50 of CN(C)C/C=C/C(=O)Nc1ccc(C(=O)N2CCC[C@@H](Nc3ncc(Cl)c(-c4c[nH]c5ccccc45)n3)C2)cc1 [THZ531] , test system: CDK12/Cyclin K (Homo sapiens, UniProt Q9NYV4).
770 nM

----------
Tgt: CDK16/Cyclin Y (Homo sapiens)
Sequence (Q00536 whole entry): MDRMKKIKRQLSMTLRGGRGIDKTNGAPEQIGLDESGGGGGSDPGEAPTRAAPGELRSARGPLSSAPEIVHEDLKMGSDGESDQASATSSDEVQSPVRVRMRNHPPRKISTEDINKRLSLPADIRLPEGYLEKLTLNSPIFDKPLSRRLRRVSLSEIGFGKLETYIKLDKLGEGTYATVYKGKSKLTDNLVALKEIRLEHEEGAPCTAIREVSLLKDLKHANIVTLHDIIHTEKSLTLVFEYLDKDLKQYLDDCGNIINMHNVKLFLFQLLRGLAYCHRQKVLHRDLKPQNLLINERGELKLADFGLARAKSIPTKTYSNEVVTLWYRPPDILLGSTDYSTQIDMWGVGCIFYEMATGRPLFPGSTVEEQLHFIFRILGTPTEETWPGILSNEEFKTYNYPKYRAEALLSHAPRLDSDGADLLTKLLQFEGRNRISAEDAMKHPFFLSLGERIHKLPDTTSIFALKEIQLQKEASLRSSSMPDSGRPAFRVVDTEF
Sequence (Q8ND76 whole entry partner): as the sequence (Q8ND76 whole entry partner) above
Protocol: NanoBRET live-cell target engagement, CDK16-NanoLuc/Cyclin Y in HEK-293
Type: binding
Condition Description: CDK16/Y; experiment 2
Reported Property: Inhibition at 10µM (%)
One number for each entry, in %.

In the examples that follow, each entry is paired with its recorded Inhibition at 10µM (%).
Molecule	Reported Property	Measurement
CNc1nc(C)c(-c2nc(Nc3cccc(S(N)(=O)=O)c3)ncc2F)s1	Inhibition at 10µM (%)	92.0
CN1CCC(c2c(O)cc(O)c3c(=O)cc(-c4ccccc4Cl)oc23)C1CO (stereo not drawn)	Inhibition at 10µM (%)	61.2
CCn1cnc2c(Nc3cccc(Cl)c3)nc(N[C@@H]3CCCC[C@@H]3N)nc21 [CGP74514A]	Inhibition at 10µM (%)	76.7

Record Inhibition at 10µM (%) for all entries; do not skip any.
1. CC(C)c1c2cc(-c3ccnc(N[C@H]4CC[C@H](NC5CCOCC5)CC4)n3)ccc2nn1C
2. CC(C)c1cnn2c(NCc3ccccc3-n3cccn3)nc(OC3CCCNC3)nc12 (stereo not drawn)

91.1
88.6

// returns reported Inhibition at 10µM (%) for input CS(=O)(=O)N1CCC(NC(=O)c2[nH]ncc2NC(=O)c2c(Cl)cccc2Cl)CC1
92.6

----------
Tgt: CDK16/Cyclin Y (Homo sapiens)
Protocol: NanoBRET live-cell target engagement, CDK16-NanoLuc/Cyclin Y in HEK-293
Assay type: binding
Condition Description: CDK16/Y; experiment 2; read-out: Inhibition at 10µM (%)
Reported Property: inhibition at 10 µM (%)
Answers are plain numbers, in %.

Molecule	Measurement
Cn1cc(-c2ccc(-c3cncc(Cl)c3N3CCC4(CCNC4=O)CC3)cc2)cn1 [CCT251545]	-12.1

Please go through the list and note inhibition at 10 µM for each molecule.
1. CNC(=O)c1nn(C)c2c1C(C)(C)Cc1cnc(Nc3ccc(N4CCN(C)CC4)cc3)nc1-2 [Milciclib]
2. COc1ccc(F)cc1-c1cc(NC(=O)C2CCCNC2)ncc1Cl (stereo not shown) [CDK inhibitor 2]
3. N#CCNC(=O)c1ccc(-c2ccnc(Nc3ccc(N4CCOCC4)cc3)n2)cc1 [Momelotinib]
4. CC(C)N1CCN(c2ccc(Nc3ncc4cc5n(c4n3)C3(CCCCC3)CNC5=O)nc2)CC1 [Lerociclib]
5. CC(C)(C)c1nc(-c2cccc(NS(=O)(=O)c3c(F)cccc3F)c2F)c(-c2ccnc(N)n2)s1 [Dabrafenib]
6. CC(C)c1cnn2c(NCc3ccccc3)cc(NC[C@H]3CCNC[C@@H]3O)nc12 [CT7001]
7. CN1CCN(c2ccc(Nc3ncc4cc(C#N)c(=O)n(C5CCCC5)c4n3)cc2)CC1 [ON123300]

1: 90.1; 2: 90.1; 3: 64.3; 4: 32; 5: -3.4; 6: 56.9; 7: 78.8

Can you give me inhibition at 10 µM for all of these, one by one?
1. CN1CCN(Cc2ccc(NC(=O)Nc3ccc(Oc4ccnc(N)n4)cc3)cc2C(F)(F)F)CC1 [K03861]
2. NS(=O)(=O)c1ccc(Nc2nc(OCC3CCCCC3)c3nc[nH]c3n2)cc1 [NU6102]

1: 80.7; 2: 85.2

----------
Tgt: CDK5/CDK5R1 (Homo sapiens, UniProt Q00535)
Sequence (Q00535 whole entry): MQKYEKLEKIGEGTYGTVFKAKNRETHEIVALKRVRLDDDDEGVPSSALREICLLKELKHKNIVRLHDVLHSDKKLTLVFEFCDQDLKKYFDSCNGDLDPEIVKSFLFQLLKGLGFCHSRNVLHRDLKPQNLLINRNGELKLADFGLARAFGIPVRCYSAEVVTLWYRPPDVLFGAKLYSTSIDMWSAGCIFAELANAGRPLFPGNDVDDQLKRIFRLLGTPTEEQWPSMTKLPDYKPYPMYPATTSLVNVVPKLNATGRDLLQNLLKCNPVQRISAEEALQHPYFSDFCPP
Sequence (Q15078 whole entry partner): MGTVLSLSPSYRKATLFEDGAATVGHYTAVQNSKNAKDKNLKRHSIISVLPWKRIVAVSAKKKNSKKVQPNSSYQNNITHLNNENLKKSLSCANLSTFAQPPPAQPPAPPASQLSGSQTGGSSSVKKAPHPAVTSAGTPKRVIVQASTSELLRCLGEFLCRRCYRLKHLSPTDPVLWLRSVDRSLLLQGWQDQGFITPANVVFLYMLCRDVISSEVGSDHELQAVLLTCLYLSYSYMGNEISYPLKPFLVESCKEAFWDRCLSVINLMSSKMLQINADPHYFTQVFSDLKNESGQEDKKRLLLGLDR
Protocol: NanoBRET live-cell target engagement, CDK5-NanoLuc/CDK5R1 in HEK-293
Assay type: binding
Condition Description: CDK5/CDK5R1; experiment 1
Reported Property: Inhibition at 10µM (%)
Please answer in the form of a number followed by its unit of measurement.

Molecule	Reported Property	Measurement
CCn1cnc2c(Nc3cccc(Cl)c3)nc(N[C@@H]3CCCC[C@@H]3N)nc21 [CGP74514A]	Inhibition at 10µM (%)	90.4%
CS(=O)(=O)N1CCC(NC(=O)c2[nH]ncc2NC(=O)c2c(Cl)cccc2Cl)CC1	Inhibition at 10µM (%)	90.4%
CC(C)c1c2cc(-c3ccnc(N[C@H]4CC[C@H](NC5CCOCC5)CC4)n3)ccc2nn1C	Inhibition at 10µM (%)	68.7%

For each of the molecules below, note its Inhibition at 10µM (%).
1. CNc1nc(C)c(-c2nc(Nc3cccc(S(N)(=O)=O)c3)ncc2F)s1
2. CN1CCC(c2c(O)cc(O)c3c(=O)cc(-c4ccccc4Cl)oc23)C1CO (stereo not drawn)
3. CC(C)c1cnn2c(NCc3ccccc3-n3cccn3)nc(OC3CCCNC3)nc12 (stereo not drawn)

1: 88.4%; 2: 31.1%; 3: 86.3%
